Hey, just so you know, these numbers are from patent US20040241165A1.

- study_system: T1, human-type OT7T022 (hOT7T022) G protein-coupled receptor protein (human, UniProt Q9GZQ6 1-430)
- T1 construct: Expressed on CHO cells (cAMP assays); also called human OT7T022 receptor
- T1 sequence (Q9GZQ6 whole entry): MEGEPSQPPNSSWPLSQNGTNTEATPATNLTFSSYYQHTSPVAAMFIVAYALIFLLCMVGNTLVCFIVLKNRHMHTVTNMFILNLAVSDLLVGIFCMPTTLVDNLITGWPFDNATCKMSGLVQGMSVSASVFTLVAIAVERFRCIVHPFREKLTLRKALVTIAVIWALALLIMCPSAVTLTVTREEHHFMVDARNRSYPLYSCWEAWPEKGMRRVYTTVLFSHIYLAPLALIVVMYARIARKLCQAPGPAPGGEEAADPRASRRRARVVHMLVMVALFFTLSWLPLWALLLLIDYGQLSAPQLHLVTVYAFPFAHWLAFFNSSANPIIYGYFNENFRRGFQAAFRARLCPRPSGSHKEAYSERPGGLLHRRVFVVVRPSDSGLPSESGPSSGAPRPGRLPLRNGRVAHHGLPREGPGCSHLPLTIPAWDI
- assay_info: binding inhibition: displacement of 125I-Tyr-hRFRP-3(8) from membrane fraction of human-type OT7T022-expressing CHO cells
No end group written: not given here.
Provide the reported pIC50 of each item.
One number for each entry, as −log10 of the molar value.

Worked cases, pIC50 given:
| binder | assay_value |
| --- | --- |
| ATANLPLRSGRNMEVSLVRRVPNLPQRF-NH2 (also called hRFRP-3 (28)) [human-type RFRP-3(28)] | 8.96 |
| NLPQRF-NH2 [Asn-Leu-Pro-Gln-Arg-Phe-NH2: hRFRP-3(6)] | 8.59 |
| SAGATANLPLRSGRNMEVSLVRRVPNLPQRF-NH2 (also called hRFRP-3 (31)) [human-type RFRP-3(31)] | 8.89 |

# context switch: different binder, same pIC50
Lookup result for PNLPQRF-NH2 [Pro-Asn-Leu-Pro-Gln-Arg-Phe-NH2: hRFRP-3(7)] ; measured pIC50: 9.21
